- Experimental system: PE-labeled human PD-L1-Ig binding to Jurkat cell line over-expressing human PD-1 (Jurkat-PD-1) (Homo sapiens, UniProt Q15116)
- Construct: expressed in transfected cells; host or cells: Jurkat
- Sequence (Q15116 25-288): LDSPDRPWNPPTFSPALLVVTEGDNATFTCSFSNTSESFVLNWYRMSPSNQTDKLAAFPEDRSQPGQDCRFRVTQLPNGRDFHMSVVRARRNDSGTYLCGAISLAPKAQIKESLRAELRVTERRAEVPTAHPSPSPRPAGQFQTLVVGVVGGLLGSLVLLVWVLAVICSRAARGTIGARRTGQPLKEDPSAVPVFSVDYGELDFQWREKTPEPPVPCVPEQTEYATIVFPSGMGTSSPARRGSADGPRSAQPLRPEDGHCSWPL
- Experimental protocol: Jurkat-PD-1 Cell Binding High-Content Screening Assay (CBA): Method 1
- Assay conditions: Jurkat-hPD-1 cells, PE-labeled PD-L1-Ig 20 nM final; read-out: Jurkat HPDL1 PD1 IC50 (uM) (Method 1)
Bridge positions count the residues as written; N and C are the ends. Square brackets hold non-standard residues; d marks the D form. Peptide text beside a SMILES is read from it. Tyr(Ph) = N[C@@H](Cc1ccc(Oc2ccccc2)cc1)C(=O)O; Bip = N[C@@H](Cc1ccc(-c2ccccc2)cc1)C(=O)O; Phe(3-OMe) = COc1cccc(C[C@H](N)C(=O)O)c1; NMeA = CN[C@@H](C)C(=O)O; Dab = NCC[C@H](N)C(=O)O
Value type: IC50 (µM)
The reply should contain only the number, in µM.

INSERT INTO assay_data (compound, meas_value) VALUES
  ('CC(C)C[C@@H]1NC(=O)[C@H](Cc2c[nH]c3ccccc23)NC(=O)[C@H](CC(=O)O)NC(=O)[C@H](Cc2ccc(Oc3ccccc3)cc2)NC(=O)[C@H](Cc2ccccc2)NC(=O)CSC[C@@H](C(=O)N[C@@H](C)C(N)=O)NC(=O)[C@H](CO)NC(=O)[C@H](C(C)C)NC(=O)[C@H](CC(C)C)NC(=O)[C@H](CC(N)=O)NC(=O)[C@@H](C)NC(=O)[C@H](C)N(C)C(=O)[C@H](C(C)C)NC(=O)[C@H](Cc2ccc(-c3ccccc3)cc2)NC1=O [Compound 1813] ({CH2CO}-F[Tyr(Ph)]DWL[Bip]V[NMeA][dA]NLVSCA-NH2; thioether N-14)', 0.3),
  ('CC(C)C[C@@H]1NC(=O)[C@H](Cc2c[nH]c3ccccc23)NC(=O)[C@H](CC(=O)O)NC(=O)[C@H](Cc2ccc(O)cc2)NC(=O)[C@H](Cc2ccccc2)NC(=O)CSC[C@@H](C(=O)NCC(N)=O)NC(=O)[C@H]([C@@H](C)O)NC(=O)[C@H](C(C)C)NC(=O)[C@H](CC(C)C)NC(=O)[C@H](CC(N)=O)NC(=O)[C@@H](C)NC(=O)[C@H](C)N(C)C(=O)[C@H](C(C)C)NC(=O)[C@H](Cc2ccc(-c3ccccc3)cc2)NC1=O [Compound 1476] ({CH2CO}-FYDWL[Bip]V[NMeA][dA]NLVTCG-NH2; thioether N-14)', 0.06),
  ('COc1cccc(C[C@@H]2NC(=O)[C@H](Cc3ccccc3)NC(=O)CSC[C@@H](C(=O)NCC(N)=O)NC(=O)[C@H](CO)NC(=O)[C@H](C(C)C)NC(=O)[C@H](CC(C)C)NC(=O)[C@H](CC(N)=O)NC(=O)[C@@H](CC(C)C)NC(=O)[C@H](C)N(C)C(=O)[C@H](C(C)C)NC(=O)[C@H](Cc3ccc(-c4ccccc4)cc3)NC(=O)[C@H](CC(C)C)NC(=O)[C@H](Cc3c[nH]c4ccccc34)NC(=O)[C@H](CC(=O)O)NC2=O)c1 [Compound 1521] ({CH2CO}-F[Phe(3-OMe)]DWL[Bip]V[NMeA][dL]NLVSCG-NH2; thioether N-14)', 0.07);

Prompt line: I have this compound here, CC(C)C[C@@H]1NC(=O)[C@H](CCN)NC(=O)[C@@H](CC(C)C)NC(=O)[C@H](C)N(C)C(=O)[C@H](CC(C)C)NC(=O)[C@H](Cc2ccc(-c3ccccc3)cc2)NC(=O)[C@H](C(C)C)NC(=O)[C@H](Cc2c[nH]c3ccccc23)NC(=O)[C@H](CC(=O)O)NC(=O)[C@H](Cc2ccc(O)cc2)NC(=O)[C@H](CC(N)=O)NC(=O)CSC[C@@H](C(=O)N[C@@H](C)C(N)=O)NC(=O)[C@H]([C@@H](C)O)NC(=O)[C@H](C(C)C)NC1=O [Compound 1270] ({CH2CO}-NYDWV[Bip]L[NMeA][dL][Dab]LVTCA-NH2; thioether N-14) , and I need its recorded IC50.
Response line: 0.11

src = patent US20240409585A1
